Reported GLUCOSE values are given for each entry in this list.
# Species: Rattus norvegicus
# protocolText: DrugMatrix - Regimen: Daily Repeat
# Type: toxicity, organism-based, Sprague-Dawley
# Design: regimen Daily Repeat, gender Male, age 6-8 weeks
# settings: in vivo, po, 0 mg/kg, 120 h, tissue Plasma, route oral GAVAGE, dose level Control, time 5 day, vehicle .5 % CMC
Express your answer in mg/dL, writing the number without its unit.

The following molecules have reported results that may help.
q: Report GLUCOSE for CCN(CC)CCNC(=O)c1cc(Cl)c(N)cc1OC [METOCLOPRAMIDE] please.
a: 171.33

q: Next record, please: O=C1c2ccccc2C(=O)C1c1ccccc1 [PHENINDIONE]
a: 177.17

q: Next record, please: Cc1cc2c(s1)Nc1ccccc1N=C2N1CCN(C)CC1 [OLANZAPINE]
a: 149.83

q: Next record, please: `NC(=O)CN1CCCC1=O`
a: 177.83

q: Next record, please: CCN1C[C@]2(COC)[C@H](O)C[C@H](OC)[C@@]34[C@@H]5C[C@@]6(O)[C@H](OC(=O)c7ccccc7)[C@@H]5[C@@](OC(C)=O)([C@@H]([C@H](OC)[C@H]23)[C@@H]14)[C@@H](O)[C@@H]6OC [ACONITINE]
a: 177.17

Others:
q: Report GLUCOSE for CC(C)NCC(O)COc1ccc(CC(N)=O)cc1 (centres undefined) [ATENOLOL] please.
a: 167.67

q: Next record, please: CN(C)CCOC(c1ccccc1)c1ccccc1.Cn1c(=O)c2[nH]c(Cl)nc2n(C)c1=O [DIMENHYDRINATE]
a: 155.33

q: Next record, please: COc1cc(/C=C/C(=O)O)ccc1O [FERULATE]
a: 161.67

q: Next record, please: NCC(CC(=O)O)c1ccc(Cl)cc1 (centres undefined) [BACLOFEN]
a: 150.5

====

# Organism: Rattus norvegicus
# protocolText: DrugMatrix - Regimen: Daily Repeat
# Assay type: toxicity, organism-based, Sprague-Dawley
# Design: regimen Daily Repeat, gender Male, age 6-8 weeks
# settings: in vivo, iv, 0 mg/kg, 72 h, tissue Blood, dose level Control, time 3 day, vehicle 100 % SALINE
measure: LYMPHOCYTE (%)
Express your answer in %, writing the number without its unit.

q: Report LYMPHOCYTE for `CO[C@@]12[C@H](COC(N)=O)C3=C(C(=O)C(C)=C(N)C3=O)N1C[C@@H]1N[C@@H]12` please.
a: 94

q: Next record, please: `Cc1c(N)nc([C@H](CC(N)=O)NC[C@H](N)C(N)=O)nc1C(=O)N[C@H](C(=O)N[C@H](C)[C@@H](O)[C@H](C)C(=O)N[C@H](C(=O)NCCc1nc(-c2nc(C(=O)NCCC[S+](C)C)cs2)cs1)[C@@H](C)O)[C@@H](O[C@@H]1O[C@@H](CO)[C@@H](O)[C@H](O)[C@@H]1O[C@H]1O[C@H](CO)[C@@H](O)[C@H](OC(N)=O)[C@@H]1O)c1c[nH]cn1.[Br-]`
a: 88.67

q: Next record, please: `COC(=O)C[C@](O)(CCC(C)(C)O)C(=O)O[C@@H]1C(OC)=C[C@]23CCCN2CCc2cc4c(cc2[C@H]13)OCO4`
a: 92

Here is the next item to consider.
q: Report LYMPHOCYTE for `CC(=O)[C@]1(O)Cc2c(O)c3c(c(O)c2[C@@H](O[C@H]2C[C@H](N)[C@H](O)[C@H](C)O2)C1)C(=O)c1ccccc1C3=O` please.
a: 88.17

====

# Species: Rattus norvegicus
# protocolText: DrugMatrix - Regimen: Daily Repeat
# Type: toxicity, organism-based, Sprague-Dawley
# Design: regimen Daily Repeat, gender Male, age 6-8 weeks
# settings: in vivo, po, 0 mg/kg, 120 h, tissue Plasma, route oral GAVAGE, dose level Control, time 5 day, vehicle 100 % WATER
Given measured CHOLESTEROL, output Fulfilled if it is greater than or equal to 70 mg/dL and Not fulfilled if not.

q: Is the recorded value of CHOLESTEROL equal to or greater than 70 mg/dL for this molecule? NN [HYDRAZINE]
a: Fulfilled

q: Next record, please: `CN1C(=O)OC(C)(C)C1=O`
a: Not fulfilled

q: Next record, please: `Cc1cn([C@H]2C=C[C@@H](CO)O2)c(=O)[nH]c1=O`
a: Not fulfilled

q: Next record, please: `CC(Cl)(Cl)Cl`
a: Not fulfilled

q: Next record, please: `CCN(CC)C(=S)SSC(=S)N(CC)CC`
a: Fulfilled

Others:
q: Is the recorded value of CHOLESTEROL equal to or greater than 70 mg/dL for this molecule? `C1CCN2C[C@@H]3C[C@@H](CN4CCCC[C@@H]34)[C@H]2C1`
a: Not fulfilled

q: Next record, please: `C[N+](C)(C)CCOC(N)=O.[Cl-]`
a: Not fulfilled

====

# Species: Rattus norvegicus
# protocolText: DrugMatrix - Regimen: Daily Repeat
# Type: toxicity, organism-based, Sprague-Dawley
# Parameters: regimen Daily Repeat, gender Male, age 6-8 weeks
# settings: in vivo, iv, 0 mg/kg, 120 h, tissue Blood, dose level Control, time 5 day, vehicle 100 % SALINE
Reported NUCLEATED RED BLOOD CELLS values are given for each entry in this list.

The following molecules have reported results that may help.
q: Report NUCLEATED RED BLOOD CELLS for COC(=O)C[C@](O)(CCC(C)(C)O)C(=O)O[C@@H]1C(OC)=C[C@]23CCCN2CCc2cc4c(cc2[C@H]13)OCO4 [HARRINGTONINE] please.
a: 0 /100WBC

q: Next record, please: Cc1c(N)nc([C@H](CC(N)=O)NC[C@H](N)C(N)=O)nc1C(=O)N[C@H](C(=O)N[C@H](C)[C@@H](O)[C@H](C)C(=O)N[C@H](C(=O)NCCc1nc(-c2nc(C(=O)NCCC[S+](C)C)cs2)cs1)[C@@H](C)O)[C@@H](O[C@@H]1O[C@@H](CO)[C@@H](O)[C@H](O)[C@@H]1O[C@H]1O[C@H](CO)[C@@H](O)[C@H](OC(N)=O)[C@@H]1O)c1c[nH]cn1.[Br-] [BLEOMYCIN A2]
a: 0 /100WBC

q: Next record, please: CO[C@@]12[C@H](COC(N)=O)C3=C(C(=O)C(C)=C(N)C3=O)N1C[C@@H]1N[C@@H]12 [MITOMYCIN]
a: 0 /100WBC

Here is the next item to consider.
q: Report NUCLEATED RED BLOOD CELLS for CC(=O)[C@]1(O)Cc2c(O)c3c(c(O)c2[C@@H](O[C@H]2C[C@H](N)[C@H](O)[C@H](C)O2)C1)C(=O)c1ccccc1C3=O [IDARUBICIN] please.
a: 0.17 /100WBC

====

# Organism: Rattus norvegicus
# protocolText: DrugMatrix - Regimen: Daily Repeat
# Assay type: toxicity, organism-based, Sprague-Dawley
# Design: regimen Daily Repeat, gender Male, age 6-8 weeks
# settings: in vivo, po, 1500 mg/kg, 72 h, tissue Blood, route oral GAVAGE, dose level High, time 3 day, vehicle .5 % CMC
Reported ERYTHROCYTE COUNT values are given for each entry in this list.
Express your answer in x10E6/uL, writing the number without its unit.

The following compounds have reported results that may help.
q: Report ERYTHROCYTE COUNT for `O=C(O)CCc1nc(-c2ccccc2)c(-c2ccccc2)o1` please.
a: 5.87

q: Next record, please: Cc1ccc(S(=O)(=O)NC(=O)NN2CCCCCC2)cc1 [TOLAZAMIDE]
a: 5.57

q: Next record, please: COc1ccc(Cl)cc1C(=O)NCCc1ccc(S(=O)(=O)NC(=O)NC2CCCCC2)cc1 [GLYBURIDE]
a: 6.36

Others:
q: Report ERYTHROCYTE COUNT for `CC[C@H]1OC(=O)[C@H](C)[C@@H](O[C@H]2C[C@@](C)(OC)[C@@H](O)[C@H](C)O2)[C@H](C)[C@@H](O[C@@H]2O[C@H](C)C[C@H](N(C)C)[C@H]2O)[C@](C)(O)C[C@@H](C)C(=O)[C@H](C)[C@@H](O)[C@]1(C)O` please.
a: 6.59

q: Next record, please: COc1cc(/C=C/C(=O)O)ccc1O [FERULATE]
a: 5.75

====

Reported ASPARTATE AMINOTRANSFERASE values are given for each entry in this list.
# Species on record: Rattus norvegicus
# protocolText: DrugMatrix - Regimen: Daily Repeat
# Assay type: toxicity, organism-based, Sprague-Dawley
# Set-up: regimen Daily Repeat, gender Male, age 6-8 weeks
# settings: in vivo, po, 0 mg/kg, 120 h, tissue Plasma, route oral GAVAGE, dose level Control, time 5 day, vehicle .5 % CMC
Express your answer in u/L, writing the number without its unit.

q: Report ASPARTATE AMINOTRANSFERASE for CCN(CC)CCNC(=O)c1cc(Cl)c(N)cc1OC [METOCLOPRAMIDE] please.
a: 68.33

q: Next record, please: CC(=O)Nc1ccc2c(c1)Cc1ccccc1-2 [2-ACETYLAMINOFLUORENE]
a: 89.67

q: Next record, please: O=C1c2ccccc2C(=O)C1c1ccccc1 [PHENINDIONE]
a: 65.83

Others:
q: Report ASPARTATE AMINOTRANSFERASE for `NC(=O)CN1CCCC1=O` please.
a: 94.67
